Target: Alpha-galactosidase (Coffea arabica)
Test: Inhibition of green coffee beans alpha-galactosidase at 100 uM using 4-MU-glycopyranoside as substrate by spectrophotometric analysis relative to control
# inhibition annotations
measurement name: inhibition

[[record]]
compound = "CC(C)=CCCC(C)CC(=O)NC[C@H]1NC[C@H](O)[C@@H](O)[C@H]1O (stereo not given in full)"
measurement_name = "inhibition"
value_observed = "29%"

[[record]]
compound = "COc1ccc(OC)c(/C=C/C(=O)NC[C@H]2NC[C@H](O)[C@@H](O)[C@H]2O)c1"
measurement_name = "inhibition"
value_observed = "57%"

[[record]]
compound = "NC[C@@H]1NC[C@H](O)[C@H](O)[C@H]1O"
measurement_name = "inhibition"
value_observed = "13%"

[[record]]
compound = "COc1ccc(Br)cc1/C=C/C(=O)NC[C@H]1NC[C@H](O)[C@@H](O)[C@H]1O"
measurement_name = "inhibition"
value_observed = "47%"


Measured values drawn from ChEMBL document CHEMBL4145459 for this set.
